System: SW-620 colon
protocolNotes: NCI-60 one-dose screen, 48 h (100 = growth as untreated, 0 = no growth, -100 = all killed)
setupConditions: 10 µM unless noted
The panel holds about 83,000 compounds, 20% with a hit somewhere; the sample as a whole holds those more often. Calls of active or inactive are those of the source. The calls were made as follows: active = growth percent below 10; inactive = the rest.
Assignment: determine reported growth for the given molecules.

Exercise: Report growth on SW-620 colon for this entry: O=C(/C=C/C12c3ccccc3C(c3ccccc31)C1C(=O)NC(=O)C12)c1ccco1 (stereo not drawn)
Solution: 27.4% (inactive)

Exercise: Please tell me the measured growth for O=c1c2ccccc2n(C[C@H]2CO2)c2ccccc12 ; system: SW-620 colon.
Solution: 0.352% (active)

Shifting focus to the molecule that follows.
Exercise: State recorded growth with SW-620 colon, entry COc1cc(/C=C/c2cn[nH]c2-c2ccc(C)cc2)cc(OC)c1OC , no comment.
Solution: 19.7% (inactive)

====

System: OVCAR-8 ovarian
protocolNotes: NCI-60 one-dose screen, 48 h (100 = growth as untreated, 0 = no growth, -100 = all killed)
setupConditions: 10 µM unless noted
The panel holds about 83,000 compounds, 20% with a hit somewhere; the sample as a whole holds those more often.
endpointName: growth (%)
Numbers only, in %.

In the examples that follow, each entry is paired with its recorded growth.
Exercise: Note down growth recorded for O=S(=O)(Nc1cc(F)cc(F)c1)c1ccc(-c2cnc(C3CC3)o2)cc1
Solution: 49.6

Exercise: Quick one: give measured growth for Cc1cc(=O)n(C(=S)Nc2ccc(Cl)cc2)c2cc(O)ccc12
Solution: 101

Quick request: growth for each listed item, please.
1. COCCn1cc(-c2csc(-c3c[nH]c4ccccc34)n2)c2cccnc21
2. CCOC(=O)c1cnn(CC(C)O)c1NC(=O)NCc1cccc(F)c1 (configuration not stated)

Solution:
1: 38.6; 2: 106

The following compounds each have a reported value; give each one's growth.
1. Cc1ccc(C)c2c1sc1nc(N3CCOCC3)c(C#N)c(=O)n12
2. C#CCOc1cccc(Nc2ncnc3c2ncn3C2CCN(C(=O)CCl)C2)c1 (configuration not stated)
3. CCOC(=O)C/C(=N\Nc1cc(=O)[nH]c2ccc(OC)cc12)C(=O)OCC
4. NS(=O)(=O)c1ccc(C(=O)N=Nc2c(O)[nH]c3ccc(Cl)cc23)cc1
5. Nc1ccc(Br)cc1C(F)(F)F
6. N#Cc1c(-c2ccccc2)cc(-c2ccccc2)n(CCCCC(=O)NO)c1=O
7. COc1ccccc1/C=C/C(=O)Nc1ccc(F)cc1

Solution:
1: 110; 2: 5.81; 3: 103; 4: 95; 5: 100; 6: 15.6; 7: 100

Could you tell me growth for each of these compounds? They are listed below.
1. O=C(/C=C/C12c3ccccc3C(c3ccccc31)C1C(=O)NC(=O)C12)c1ccc(I)cc1 (configuration not stated)
2. C[C@@H]1NC(=O)[C@H](Cc2ccccc2)N(Cc2cccnc2)C1=O
3. COc1ccc(C2[C@@H](c3ccccc3)C(=O)N2c2cc(OC)c(OC)c(OC)c2)cc1F (some centres not stated)
4. COc1cc2c(c(OC)c1OC)C(=O)CC(c1cccc(C(=O)Nc3ccccc3Br)c1)O2 (configuration not stated)
5. Cc1ccc2c(/C=C/C(=O)c3cc(CN4CCOCC4)c(O)c4nc(C)ccc34)cc(CN3CCOCC3)c(O)c2n1
6. O=c1c2ccccc2n(C[C@H]2CO2)c2ccccc12

Solution:
1: 35.6; 2: 102; 3: 1.85; 4: 91.8; 5: 11.1; 6: 4.1

====

Assignment: determine reported growth for the given compounds.
Tested on: MCF7 breast
protocolNotes: NCI-60 one-dose screen, 48 h (100 = growth as untreated, 0 = no growth, -100 = all killed)
setupConditions: 10 µM unless noted
About 83,000 compounds went through this panel and 20% of them were active in at least one assay; those are over-represented in the sample as a whole. Active and inactive are the calls of the source. How the source made its calls: active means growth percent below 10; inactive means the rest.

Exercise: Answer with the recorded growth for the compound listed here: Cc1ccc(O)c(NC(=O)c2cccc(Nc3ccnc(C(F)(F)F)c3)c2)c1
Solution: 40.7% (inactive)

Could you tell me growth for each of these compounds? They are listed below.
1. COC12C=C/C(=C(/C(=O)OCc3csc(SC)n3)C(=O)CCCCCCCCC3(OC)C=C/C(=C(/C(=O)OCc4cnc(SC)s4)C(=O)CCCCCCCC1)O3)O2 (configuration not stated)
2. N#Cc1c(-c2ccc(Cl)cc2)nc(NN=Cc2ccc[nH]2)nc1N1CCOCC1
3. CN1C(=O)/C(=C/c2ccc(C(=O)Nc3ncc(Cc4cc(Cl)ccc4Cl)s3)cc2)SC1=S

Solution:
1. 23.3% (inactive)
2. 70.7% (inactive)
3. 67.4% (inactive)

Dear reader, for each entry below, please note its growth.
1. CCN(CC)CCOc1ccc2ccc(=O)oc2c1
2. O=C(Nc1cc(Cl)cc(Cl)c1)Oc1c(Cl)c(Cl)c(Cl)c(Cl)c1Cl
3. Cc1nc2sc(C(=O)Nc3cccc(Cl)c3C)c(N)c2cc1C(=O)/C=C/c1ccccc1
4. Cc1ccc(NC(=O)c2sc3nc(C)c(C(O)c4ccccc4)cc3c2N)cc1 (configuration not stated)
5. Cc1cc2oc(/C=C/c3ccccc3)cc(=O)c2c(C)c1Cl
6. O=[N+]([O-])c1ccccc1Sc1ccccc1[N+](=O)[O-]
7. N#Cc1c(-c2ccc(Br)cc2)nc2c(N=Nc3ccc(S(N)(=O)=O)cc3)c(N)nn2c1N
8. COc1cc(/C=C/C(=O)N2CCN(C(=O)c3cc(OC)c(OC)c(OC)c3)CC2)ccc1OCCCOc1cc2c(cc1OC)C(=O)N1CCC[C@H]1C=N2

Solution:
1. 97.6% (inactive)
2. 83% (inactive)
3. 3% (active)
4. 19.2% (inactive)
5. 98% (inactive)
6. 108% (inactive)
7. 31.6% (inactive)
8. 7.86% (active)

Provide growth for all items below, preserving their order.
1. CCCCn1c(NC(C)=O)c(S(=O)(=O)c2ccccc2)c2nc3ccccc3nc21
2. Oc1nc(NCc2ccccc2)sc1/C=C1\C=Nc2ncccc21
3. CCN(CC)CCOc1ccc(C(=O)/C=C\c2ccc(Cl)cc2Cl)cc1
4. O=C(/C=C/C12c3ccccc3C(c3ccccc31)C1C(=O)NC(=O)C12)c1ccco1 (configuration not stated)
5. O=C1C=C(SCCO)C(=O)c2ccccc21

Solution:
1: 98.4% (inactive); 2: 42% (inactive); 3: -48.1% (active); 4: 12.8% (inactive); 5: -55.1% (active)

====

System: SF-295 CNS
protocolNotes: NCI-60 one-dose screen, 48 h
setupConditions: 10 µM unless noted
Experimental: Cells are grown in 96 well plates and exposed to the test compound for 48 hours. Compounds are tested at a single concentration, which is 10^-5 M for most compounds. The reported endpoint is percent growth (GI% or GIPRCNT), where numbers from 0 - 100% represent growth inhibition, and numbers from -100% - 0 represent cell death. For example, a value of 40 represents 60% growth inhibition. A value of 0 means no net growth occurred over the course of the experiment. […]
The panel holds about 83,000 compounds, 20% with a hit somewhere; the sample as a whole holds those more often. Active and inactive are the calls of the source. Rule for the calls: active = growth percent below 10; inactive = the rest.
// classify into yes (1) (active), no (0) (inactive)

Exercise: Status in this test for CN(C)CCCC1(c2ccc(F)cc2)OCc2cc(-c3csc4ccccc34)ccc21 (centres undefined) ?
Solution: yes (1)

---
Exercise: Per the records of this test, what outcome belongs to CN(C)Cc1ccc(NC(=O)c2cncc(C#Cc3cnc(N)c4ncccc34)c2)cc1C(F)(F)F ?
Solution: no (0)

Exercise: For this compound, state the assay outcome: CCN(CC)C(=O)CC1=C(C)/C(=C/c2[nH]c(-c3ccc[nH]3)cc2OC)N=C1C
Solution: yes (1)

Exercise: Write down the call the test reported for this compound. Item: CCOC(=O)/C=C1\S/C(=N\Nc2cc(=O)[nH]c3ccc(Br)cc23)N(c2ccccc2)C1=O
Solution: no (0)

====

Tested on: HCT-116 colon
protocolNotes: NCI-60 one-dose screen, 48 h (100 = growth as untreated, 0 = no growth, -100 = all killed)
setupConditions: 10 µM unless noted
Compounds without any hit were thinned out: in the full panel of roughly 83,000, 20% have a hit.
For each of the molecules below, state its growth.
Numbers only, in %.

Reference set (2 entries):
Exercise: Read the entry Cc1cccc(N2C(=O)/C(=C/C(Cl)=C/c3ccc([N+](=O)[O-])cc3)SC2=S)c1C and write its reported growth.
Solution: -38.8

Exercise: Give a short answer stating reported growth for Fc1ccc2[nH]cc(-c3nc(-c4c[nH]c5c(Cl)nccc45)cs3)c2c1 .
Solution: 39.6

More entries:
Exercise: Recall and state the measured growth for N=C(N)c1ccc(-c2ccc(-c3ccccc3)o2)o1 .
Solution: 19.4

====

System: MDA-MB-231 breast
protocolNotes: NCI-60 one-dose screen, 48 h (100 = growth as untreated, 0 = no growth, -100 = all killed)
setupConditions: 10 µM unless noted
The panel holds about 83,000 compounds, 20% with a hit somewhere; the sample as a whole holds those more often.
Short version: growth at least 90% is condition met, less is condition not met.

Known results for compounds:
Exercise: Does the reported growth for c1cc(OCCCCCOc2cccc(-c3nc4ccccc4[nH]3)c2)cc(-c2nc3ccccc3[nH]2)c1 fall at or above the 90% mark?
Solution: condition not met

Exercise: Quick check, growth >= 90%? O=C(CCCCCCCC(=O)N1CCCCC1)N1CCCCC1
Solution: condition met

Exercise: Assess whether reported growth for CCn1cc(Cc2cc(C(=O)Nc3cc4cc(OC)c(OC)cc4c(C)n3)ccc2Cl)cn1 sits at 90% or higher.
Solution: condition not met

Exercise: In plain terms: is recorded growth at least 90% for CNC(=O)Nc1ccc(-c2ccc3ncnc(Nc4cccc(Cl)c4)c3c2)cc1 ?
Solution: condition not met

Exercise: // inclusive: growth at least 90%? input: CCCCO[C@@H]1C=C2[C@H]3CC(C)(C)C(=O)C[C@]3(C(=O)O[C@@H]3O[C@H](CO[C@@H]4O[C@H](CO)[C@@H](OC5OC(C)C(O)C(O)C5O)[C@H](O)[C@H]4O)[C@@H](O)[C@H](O)[C@H]3O)CC[C@@]2(C)[C@]2(C)CC[C@H]3C(C)(C)C(=O)CC[C@]3(C)[C@@H]12 (stereo partly drawn)
Solution: condition not met

Next, consider the following compound.
Exercise: hey, is growth for this one >= 90%? C1CCC(N2CN3c4nonc4N4CN(C5CCCCC5)CN5c6nonc6N(C2)C3C45)CC1 (stereo not drawn)
Solution: condition met
